Reported values of pKd for individual entries
subjectOfTest: T1, Human IL13Rα2 (human, UniProt Q14627 27-343, limits assumed)
T1 construct: also called human recombinant IL13Rα2; Human IL13Ra2
T1 sequence (looked up): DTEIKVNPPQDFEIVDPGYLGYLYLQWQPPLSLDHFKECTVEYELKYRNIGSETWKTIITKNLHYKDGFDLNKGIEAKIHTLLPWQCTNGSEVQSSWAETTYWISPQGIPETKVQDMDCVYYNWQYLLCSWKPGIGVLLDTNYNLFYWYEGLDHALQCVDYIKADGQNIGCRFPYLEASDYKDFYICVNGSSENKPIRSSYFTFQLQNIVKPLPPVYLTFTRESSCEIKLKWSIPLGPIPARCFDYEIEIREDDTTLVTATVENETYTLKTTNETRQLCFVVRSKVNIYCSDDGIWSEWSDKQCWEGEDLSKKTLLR
experiment: SPR Biacore 8K affinity ranking, antibody supernatant Fc-captured, 100 nM IL13Rα2 analyte
pKd: −log10 of the molar value.

- binder: "Humanized antibody VH3 + VL4 (antibody, human IgG1, kappa, V domains shown) VH: QVQLVQSGAEVKKPGASVKVSCKASGYTFSNYLMNWVRQAPGQGLEWMGRIDPYDGDIDYNQNFKDRVTMTRDTSTSTVYMELSSLRSEDTAVYYCARGYGTAYGVDYWGQGTLVTVSS VL: EIVMTQSPATLSVSPGERATLSCRASESVDNYGISFMNWYQQKPGQAPRLLIYAASRQGSGIPARFSGSGSGTEFTLTISSLQSEDFAVYYCQQSKEVPWTFGGGTKLEIKR"
  pKd: 9.01
- binder: "Humanized antibody VH1 + VL3 (antibody, human IgG1, kappa, V domains shown) VH: QVQLVQSGAEVKKPGSSVKVSCKASGYTFSNYLMNWVRQAPGQGLEWMGRIDPYDGDIDYNQNFKDRVTITADKSTSTAYMELSSLRSEDTAVYYCARGYGTAYGVDYWGQGTLVTVSS VL: EIVLTQSPATLSLSPGERATLSCRASESVDNYGISFMNWYQQKPGQAPRLLIYAASRQGSGIPARFSGSGSGTDFTLTISSLEPEDFAVYYCQQSKEVPWTFGGGTKLEIKR"
  pKd: 9.05
- binder: "Humanized antibody VH3 + VL1 (antibody, human IgG1, kappa, V domains shown) VH: QVQLVQSGAEVKKPGASVKVSCKASGYTFSNYLMNWVRQAPGQGLEWMGRIDPYDGDIDYNQNFKDRVTMTRDTSTSTVYMELSSLRSEDTAVYYCARGYGTAYGVDYWGQGTLVTVSS VL: DIVMTQSPDSLAVSLGERATINCRASESVDNYGISFMNWYQQKPGQPPKLLIYAASRQGSGVPDRFSGSGSGTDFTLTISSLQAEDVAVYYCQQSKEVPWTFGGGTKLEIKR"
  pKd: 9.18
- binder: "Humanized antibody VH4 + VL3 (antibody, human IgG1, kappa, V domains shown) VH: QVQLVQSGAEVKKPGASVKVSCKASGYTFSNYLMNWVRQATGQGLEWMGRIDPYDGDIDYNQNFKDRVTITRNTSISTAYMELSSLRSEDTAVYYCARGYGTAYGVDYWGQGTLVTVSS VL: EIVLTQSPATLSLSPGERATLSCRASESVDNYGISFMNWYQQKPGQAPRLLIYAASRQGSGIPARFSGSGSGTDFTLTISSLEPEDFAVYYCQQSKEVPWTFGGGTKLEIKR"
  pKd: 9.06
